Test system: CD11b
Experiment: Human whole blood CD11b up-regulation assay
Format: cell-based
Settings: Homo sapiens, 2 nM human C5a, CD15+ granulocytes, read-out: hCD11b IC50
observation type: pIC50
Recall that pIC50 is obtained by taking minus log10 of the concentration measured in molar.

Measured pIC50, `COc1nc(-c2c(C)ccc3[nH]nc(C)c23)nc2c1CN(c1cc(C3(C)COC3)ccc1C)CC2` : 7.14

Measured pIC50, `CO[C@@H]1CCN(c2nc(-c3c(C)ccc4[nH]nc(C)c34)nc3c2CN(c2cc(C4CC4)nn2C)CC3)[C@H](C)C1` : 7.62

Measured pIC50, `Cc1ccc(C(C)C)cc1N1CCc2nc(-c3c(C)ccc4[nH]nc(C)c34)nc(OCCN3CCOCC3)c2C1` : 7.22

Measured pIC50, `CO[C@@H]1CCN(c2nc(-c3c(C)ccc4[nH]nc(C)c34)nc3c2CN(c2cc(C4(C)COC4)ccc2C)CC3)[C@H](C)C1` : 7.82
